Numbers sourced from PubChem BioAssay (NCI).

# Tested on: UACC-257 melanoma
# testMethodNotes: NCI-60 one-dose screen, 48 h
# measurementContext: 10 µM unless noted
The panel holds about 83,000 compounds, 20% with a hit somewhere; the sample as a whole holds those more often. Calls of active or inactive are those of the source. Rule for the calls: active = growth percent below 10; inactive = the rest.
Field 'call' accepts active, inactive

Example entries and their recorded answers appear below.
>  <compound>
C=C1CC[C@@H]2[C@](C)(CO)[C@H](O)CC[C@@]2(C)[C@@H]1C/C(O)=C1\CCOC1=O

>  <classAssignment>
inactive

$$$$
>  <compound>
C#CC(=O)N(c1ccc(OC)cc1OC)C(C(=O)NCC(=O)OCC)c1cccs1 (stereo not drawn)

>  <classAssignment>
inactive

$$$$
>  <compound>
CS(=O)(=O)c1ccc(-n2cc(/C=N/O)c(-c3ccccc3)n2)cc1

>  <classAssignment>
inactive

$$$$
>  <compound>
O=C(Nc1cccc(Cl)c1)Nc1nc2ccc([N+](=O)[O-])cc2o1

>  <classAssignment>
active

$$$$
>  <compound>
C[C@@H]1C[C@H]2C(=O)O[C@@H](C)C(NC(=O)[C@H](Cc3cc(F)cc(F)c3)NC(=O)Nc3ccc(C4CC4)cc3F)C(=O)N3CCC[C@H]3C(=O)N3CCCC[C@H]3C(=O)N[C@@H](CO)C(=O)N2C1 (stereo partly drawn)

>  <classAssignment>
inactive

$$$$

Q: Outcome? `O=S(=O)(NCCCNc1nccc(-c2[nH]c(-c3ccccc3)nc2-c2ccc(Cl)c(O)c2)n1)c1ccc(Br)cc1`
A: inactive

Q: I'd appreciate the recorded outcome for `CCN(CC)c1cn(-c2ccc(S(N)(=O)=O)cc2)nn1` from this test.
A: inactive

Q: Per the records of this test, what outcome belongs to `Cc1ccc2c(c1)C(=O)/C(=C/c1cccc(F)c1)S2` ?
A: inactive

----------
# Tested on: MCF7 breast
# testMethodNotes: NCI-60 one-dose screen, 48 h (100 = growth as untreated, 0 = no growth, -100 = all killed)
# measurementContext: 10 µM unless noted
Compounds without any hit were thinned out: in the full panel of roughly 83,000, 20% have a hit. Activity calls are given as the source filed them. The calls were made as follows: active = growth percent below 10; inactive = the rest.
parameterMeasured: growth

Answered cases to consult:
>  <compound>
COc1c(N2CC3CCCNC3C2)c(F)cc2c(=O)c(C(=O)N/N=C/c3c[nH]c4ccccc34)cn(C3CC3)c12 (centres undefined)

>  <parameterMeasured>
growth

>  <result>
55% (inactive)

$$$$
>  <compound>
CCNC(=O)N1CCc2cc(OC)c(OCCc3ccc(OC)c(N)c3)cc2C1c1cc(C)c(C)cc1C (centres undefined)

>  <parameterMeasured>
growth

>  <result>
22.7% (inactive)

$$$$
>  <compound>
O=C(NNc1nc2cc(F)c(F)cc2n2cccc12)c1cnccn1

>  <parameterMeasured>
growth

>  <result>
14% (inactive)

$$$$
>  <compound>
COc1cccc(C(=O)Nc2cccc(C#Cc3cccc4[nH]nc(N)c34)c2)c1

>  <parameterMeasured>
growth

>  <result>
30.7% (inactive)

$$$$
>  <compound>
Cn1ccnc1C(=O)/C=C/c1ccc(NC(=O)c2ccc(F)cc2)cc1

>  <parameterMeasured>
growth

>  <result>
18% (inactive)

$$$$

Q: Endpoint output: growth of `C=CCn1c(SCC(=O)Nc2ccc(C(=O)/C=C/c3ccc(C)cc3)cc2)nnc1-c1c[nH]c2ccccc12` . Value?
A: 20.2% (inactive)

Q: Quick check: growth of `O=C(O)c1cn(C2CC2)c2cc(N3CCN(C(=O)CN4C(=O)CSC4=O)CC3)c(F)cc2c1=O` ?
A: 98.8% (inactive)

Q: Requested field: growth. Item: `CCN(CC)c1ccc(NC2=C(Cl)C(=O)c3nc(C)ccc3C2=O)cc1`
A: -38.5% (active)

Q: Fill in: growth of `COc1cc(-c2nc(SCCC(C)C)nc(NNC(=O)c3ccncc3)c2C#N)cc(OC)c1OC` is ___
A: 74.7% (inactive)

----------
Reported values of growth for individual entries
# Test system: MDA-MB-231 breast
# testMethodNotes: NCI-60 one-dose screen, 48 h (100 = growth as untreated, 0 = no growth, -100 = all killed)
# measurementContext: 10 µM unless noted
# Protocol: Cells are grown in 96 well plates and exposed to the test compound for 48 hours. Compounds are tested at a single concentration, which is 10^-5 M for most compounds. The reported endpoint is percent growth (GI% or GIPRCNT), where numbers from 0 - 100% represent growth inhibition, and numbers from -100% - 0 represent cell death. For example, a value of 40 represents 60% growth inhibition. A value of 0 means no net growth occurred over the course of the experiment. […]
About 83,000 compounds went through this panel and 20% of them were active in at least one assay; those are over-represented in the sample as a whole.
Write the answer as a number in %, unit excluded.

Q: Give recorded growth with MDA-MB-231 breast for the following compound: `NC(N)=Nc1ccc(Oc2cccc(NC(N)=Nc3ccc(Cl)c(C(F)(F)F)c3)c2)cc1`
A: 61.3

Q: Value wanted: growth (MDA-MB-231 breast) of entry COC(=O)C1(C)CCC[C@]2(C)[C@H]3C[C@H]4C(C(C)C)=C[C@]3(CC[C@@H]12)[C@H]1[C@@H]4[C@@H](OC(=O)c2ccco2)CC[C@@H]1OC(=O)c1ccco1 (some centres undefined)
A: 101

Q: Given the entry `O=C(Nc1ccc2c(ccn2Cc2ccccn2)c1)c1ccnnc1` , what growth was observed with MDA-MB-231 breast?
A: 71.1

Q: Please provide the recorded growth for `NS(=O)(=O)c1ccc(Nc2cc(-c3ccccc3)nc(SCC(=O)c3ccccc3)n2)cc1` , tested on MDA-MB-231 breast.
A: 92.9

----------
Measured growth of individual entries
# System: HCC-2998 colon
# testMethodNotes: NCI-60 one-dose screen, 48 h (100 = growth as untreated, 0 = no growth, -100 = all killed)
# measurementContext: 10 µM unless noted
About 83,000 compounds went through this panel and 20% of them were active in at least one assay; those are over-represented in the sample as a whole. Activity calls are given as the source filed them. Rule for the calls: active = growth percent below 10; inactive = the rest.

Example cases with answers are listed next.
>  <compound>
N/C(=N\C(N)=N\c1nc2ccccc2s1)c1cccc(F)c1

>  <growth>
112% [5 µM] (inactive)

$$$$
>  <compound>
N#Cc1cn(Cc2ccc(Cl)cc2Cl)c(C(=O)c2ccc(Br)cc2)c1N

>  <growth>
108% (inactive)

$$$$
>  <compound>
COc1cc(-c2nn(C(C)(C)C)cc2-c2ccnc(NCCCNS(=O)(=O)c3cccc(F)c3)n2)ccc1Cl

>  <growth>
103% (inactive)

$$$$
>  <compound>
COc1cc(/C=C2\C(=O)Nc3ccccc32)ccc1OCc1ccc(F)cc1

>  <growth>
119% (inactive)

$$$$
>  <compound>
COc1ccc2c(c1)Oc1nc(N)c(C#N)c(N)c1C2Sc1ccc(C)cc1 (stereo not drawn)

>  <growth>
-64.2% (active)

$$$$
>  <compound>
Nc1ncc(-c2ccc3ncnc(Nc4cccc(Cl)c4F)c3c2)cn1

>  <growth>
56.5% (inactive)

$$$$
>  <compound>
Cc1ccc2sc3c(c2c1)OC(N)=C(C#N)C3c1ccc(Cl)cc1 (stereo not drawn)

>  <growth>
84.8% (inactive)

$$$$
>  <compound>
O=C1/C(=C/C=C/c2ccco2)SC(=S)N1C1CCCCC1

>  <growth>
97.3% (inactive)

$$$$

Q: Form field: reported growth of `C[C@@H](Nc1c(C#N)cnc2ccc(-c3cnc(Cl)c(NS(C)(=O)=O)c3)cc12)c1ccccc1`
A: 16.7% (inactive)

Q: So what does the record say about growth for `CC1(C)CC[C@]2(C(=O)N3CCOCC3)CC[C@]3(C)C(=CC[C@@H]4[C@@]5(C)C/C(=C/c6ccccn6)C(=O)C(C)(C)[C@@H]5CC[C@]43C)[C@@H]2C1` ?
A: 81.4% (inactive)

Q: State the recorded growth for this entry: CCC1=Cc2cc(OC)ccc2OC12C=Cc1cc(OC)ccc1O2 (stereo not drawn)
A: 22.9% (inactive)

Q: I'd like to know its growth. The compound in question is `O=C(NNc1nc2cc(F)ccc2n2c(CN3CCCC3)ccc12)c1cnccn1`
A: 35.7% (inactive)

Q: Item under review: `C=CCn1c(SCC(=O)Nc2ccc(C(=O)/C=C/c3ccc(Cl)cc3)cc2)nnc1-c1c[nH]c2ccccc12` . Reported growth?
A: 97.1% (inactive)

Q: Requested field: growth. Item: `O=C(CCn1c[n+](CC(=O)c2ccc(-c3ccccc3)cc2)c2ccccc21)Nc1cccc2cccnc12`
A: 38.9% (inactive)

----------
# Tested on: 786-0 renal
# testMethodNotes: NCI-60 one-dose screen, 48 h
# measurementContext: 10 µM unless noted
This is part of a sample that, as a whole, favours compounds with a hit. Of some 83,000 tested, about 20% had one in any assay. Active and inactive are the calls of the source. The calls were made as follows: active = growth percent below 10; inactive = the rest.
Give your call using only these classes: active, inactive

>  <compound>
COc1cc(Nc2c(C#N)cnn3cc(-c4cnn(CC(C)(C)O)c4)cc23)ccc1Cl

>  <classAssignment>
inactive

$$$$
>  <compound>
Cc1cccc2c3c(sc12)C(c1ccc(F)cc1)C(C#N)=C(/N=C/c1ccc(Cl)cc1)O3 (centres undefined)

>  <classAssignment>
inactive

$$$$
>  <compound>
CC1=NC2=NN3C(=NN2C(c2ccccc2)=C1)N=NC(c1ccc(Br)cc1)=C3c1ccc(Br)cc1

>  <classAssignment>
inactive

$$$$
>  <compound>
CCO/C=N/C1=C(C#N)C(c2ccc(Cl)cc2)c2sc3c(CC)cccc3c2O1 (centres undefined)

>  <classAssignment>
inactive

$$$$
>  <compound>
N#Cc1ccccc1Cn1c2nc(=N)c3ccccc3c-2nc2ccccc21

>  <classAssignment>
inactive

$$$$

Now let's try a different one.
Q: Short answer needed: outcome of this test for `CC1(COc2ccc3ncc(C#Cc4cncc(C(=O)Nc5cccc(C(F)(F)F)c5)c4)n3n2)COC1` ?
A: inactive
